# experimental.system: PTP-1B (Homo sapiens)
# Sequence (P18031 3-277 limits assumed): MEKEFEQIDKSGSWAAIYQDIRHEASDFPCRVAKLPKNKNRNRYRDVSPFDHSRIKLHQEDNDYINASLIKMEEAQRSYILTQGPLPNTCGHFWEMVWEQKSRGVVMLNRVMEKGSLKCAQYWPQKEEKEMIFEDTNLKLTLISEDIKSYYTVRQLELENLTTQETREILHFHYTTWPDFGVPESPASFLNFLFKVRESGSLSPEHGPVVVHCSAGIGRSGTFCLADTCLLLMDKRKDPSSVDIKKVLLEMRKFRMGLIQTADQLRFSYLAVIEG
measured.endpoint: IC50 (µM)

| compound | experimental.system | IC50 (µM) |
| --- | --- | --- |
| O=C(O)/C=C/c1ccc(-c2nc(C(=O)OCc3ccccc3)c(-c3ccc(/C=C/C(=O)O)cc3)[nH]2)cc1 | PTP-1B (Homo sapiens) | 0.7 |
| CCCCCCC(OC(=O)c1ccc(/C=C/C(=O)O)cc1)C(=O)NCC(=O)OCC (centres unmarked) | PTP-1B (Homo sapiens) | 1.8 |
| O=C(O)/C=C/c1ccc(-c2nc(/C=C/c3ccccc3)[nH]c2-c2ccc(/C=C/C(=O)O)cc2)cc1 | PTP-1B (Homo sapiens) | 4.8 |
| O=C(O)/C=C/c1ccc(-c2nc(-c3ccc4c(c3)CCC4)[nH]c2-c2ccc(/C=C/C(=O)O)cc2)cc1 | PTP-1B (Homo sapiens) | 13.7 |
| COc1ccc(C(=O)OC(C(=O)c2ccc(/C=C/C(=O)O)cc2)c2ccc(/C=C/C(=O)O)cc2)cc1 (centres unmarked) | PTP-1B (Homo sapiens) | 0.5 |
| COc1ccc(C(=O)OC(c2ccc(/C=C/C(=O)O)cc2)C(OC(=O)c2ccc(OC)cc2)c2ccc(/C=C/C(=O)O)cc2)cc1 (centres unmarked) | PTP-1B (Homo sapiens) | 1.8 |
| O=C(O)/C=C/c1ccc(-c2nc3cccnc3nc2-c2ccc(/C=C/C(=O)O)cc2)cc1 | PTP-1B (Homo sapiens) | 0.98 |
| COc1ccc(-c2nc(-c3cc(/C=C/C(=O)O)ccc3O)c(-c3cc(/C=C/C(=O)O)ccc3O)[nH]2)cc1 | PTP-1B (Homo sapiens) | 25.9 |

1. O=C(O)/C=C/c1ccc(C(=O)C(=O)c2ccc(/C=C/C(=O)O)cc2)cc1
2. O=C(O)/C=C/c1ccc(-c2nc3ccc([N+](=O)[O-])cc3nc2-c2ccc(/C=C/C(=O)O)cc2)cc1
3. CCCCCCCCNC(=O)/C=C/c1ccc(C(=O)C(=O)c2ccc(/C=C/C(=O)O)cc2)cc1
Write the entries in order, lowest recorded IC50 first. Return the labels ranked in the requested order, please.
1, 2, 3

I. COc1cc(OC)c(OC)c(-c2nc(-c3ccc(/C=C/C(=O)O)cc3)c(-c3ccc(/C=C/C(=O)O)cc3)[nH]2)c1
II. CCN(CC)c1ccc(-c2nc(-c3ccc(/C=C/C(=O)O)cc3)c(-c3ccc(/C=C/C(=O)O)cc3)[nH]2)cc1
Which has the smaller recorded IC50, I or II ? Answer format: the label of the selected item.
II
(II: 0.3 µM, I: 0.52 µM)

====

# experimental.system: PTP-1B (Homo sapiens)
# Construct: known to encode a 321 amino acid fragment containing the PTP-1B catalytic domain and having PTPase activity; made in house; host or cells: E. coli DH5α, plasmid pGEX-3X-PTP-1B
# protocol.text: In vitro PTPase inhibition assay (pNPP, colorimetric), PTP-1B
# Type: biochemical
# condition.details: Table 8; 1 μM compound
# Experimental: PTP-1B enzymatic activity of samples was assayed in microtiter plates as follows. The protein concentration of the PTP-1B enzyme preparation was determined using the Bio-Rad Protein Assay kit (Bio-Rad, Hercules Calif.). […] To determine the enzymatic activity, absorbance readings of the reactions were measured at 405 nm using a Molecular Devices Thermomax Plate Reader (Menlo Park Calif.). […] (for PTP-1C and PTPα assays), stopped, and colorimetrically analyzed as described above. […]
measured.endpoint: % inhibition of PTP1B at 1 μM (%)

Example entries begin here.
| compound | % inhibition of PTP1B at 1 μM [%] |
| --- | --- |
| CCCCCCC(OC(=O)c1ccc(/C=C/C(=O)O)cc1)C(=O)NCCCCCC(=O)O (racemic) | 82 |
| CCCC(CCC)C(=O)OC(C(=O)NCCC(=O)O)c1ccc(/C=C/C(=O)O)cc1 (racemic) | 68 |
| O=C(O)/C=C/c1ccc(C(OC(=O)/C=C/c2ccc(F)cc2)C(=O)NCCCCCC(=O)O)cc1 (racemic) | 75 |
| O=C(O)/C=C/c1ccc(C(OC(=O)/C=C/c2ccc(F)cc2)C(=O)NCCC(=O)O)cc1 (racemic) | 85 |
| O=C(O)/C=C/c1ccc(C(OC(=O)c2ccc([N+](=O)[O-])cc2)C(=O)NCCC(=O)O)cc1 (racemic) | 79 |

I. CCCCCCC(OC(=O)c1ccc(/C=C/C(=O)O)cc1)C(=O)NCCC(=O)O (racemic)
II. CCCCCCCCCC(OC(=O)c1ccc(/C=C/C(=O)O)cc1)C(=O)NCCCCCC(=O)O (racemic)
Lab note: check whether I or II shows the higher recorded % inhibition of PTP1B at 1 μM. Answer format: the label of the selected item.
I
(I: 93%, II: 39%)

====

# experimental.system: PTPα (Homo sapiens, UniProt P18433)
# Sequence (P18433 20-802): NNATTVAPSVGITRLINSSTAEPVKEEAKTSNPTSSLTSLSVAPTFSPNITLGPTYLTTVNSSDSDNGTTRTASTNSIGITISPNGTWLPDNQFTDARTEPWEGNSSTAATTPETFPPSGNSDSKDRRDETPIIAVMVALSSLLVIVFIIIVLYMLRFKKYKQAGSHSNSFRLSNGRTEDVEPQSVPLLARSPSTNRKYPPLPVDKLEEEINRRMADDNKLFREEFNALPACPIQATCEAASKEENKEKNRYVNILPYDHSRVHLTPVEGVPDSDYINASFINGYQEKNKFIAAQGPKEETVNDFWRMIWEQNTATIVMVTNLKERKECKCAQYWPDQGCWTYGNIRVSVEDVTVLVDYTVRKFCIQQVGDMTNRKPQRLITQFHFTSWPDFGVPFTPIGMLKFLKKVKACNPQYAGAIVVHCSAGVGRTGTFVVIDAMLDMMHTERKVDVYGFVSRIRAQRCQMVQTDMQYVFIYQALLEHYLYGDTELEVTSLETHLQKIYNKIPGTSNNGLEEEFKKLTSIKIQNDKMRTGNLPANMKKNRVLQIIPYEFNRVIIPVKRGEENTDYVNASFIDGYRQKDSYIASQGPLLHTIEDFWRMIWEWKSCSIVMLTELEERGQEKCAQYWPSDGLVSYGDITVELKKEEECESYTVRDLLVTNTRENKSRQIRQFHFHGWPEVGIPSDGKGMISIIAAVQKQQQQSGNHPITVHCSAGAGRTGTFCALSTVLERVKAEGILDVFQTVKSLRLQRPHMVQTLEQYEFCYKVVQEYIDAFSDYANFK
# protocol.text: In vitro PTPase inhibition assay (pNPP, colorimetric), PTPα
# Type: biochemical
# condition.details: Table 8; 100 μM compound
measured.endpoint: % inhibition of PTPα at 100 μM (%)

Example entries begin here.
| compound | experimental.system | reported.value |
| --- | --- | --- |
| O=C(O)/C=C/c1ccc(C(OC(=O)/C=C/c2ccc(F)cc2)C(=O)NCCC(=O)O)cc1 (racemic) [Compound 45] | PTPα (Homo sapiens, UniProt P18433) | 85 |
| O=C(O)/C=C/c1ccc(C(OC(=O)CCC2CCCC2)C(=O)NCCCCCC(=O)O)cc1 (racemic) [Compound 50] | PTPα (Homo sapiens, UniProt P18433) | 37 |
| O=C(O)/C=C/c1ccc(C(=O)OC(C(=O)NCCCCCC(=O)O)c2ccc(Br)cc2)cc1 (racemic) [Compound 37] | PTPα (Homo sapiens, UniProt P18433) | 63 |
| COc1ccc(C(=O)OC(C(=O)NCCC(=O)O)c2ccc(/C=C/C(=O)O)cc2)cc1 (racemic) [Compound 42] | PTPα (Homo sapiens, UniProt P18433) | 92 |
| CCCC(CCC)C(=O)OC(C(=O)NCCCCCC(=O)O)c1ccc(/C=C/C(=O)O)cc1 (racemic) [Compound 48] | PTPα (Homo sapiens, UniProt P18433) | 3 |

1. CCCCCCC(OC(=O)c1ccc(/C=C/C(=O)O)cc1)C(=O)NCCC(=O)O (racemic) [Compound 38]
2. CCCCCCC(OC(=O)c1ccc(/C=C/C(=O)O)cc1)C(=O)NCCCCCC(=O)O (racemic) [Compound 39]
Which has the smaller recorded % inhibition of PTPα at 100 μM, 1 or 2 ? Answer format: the label of the selected item.
2

====

# experimental.system: PTP-1B (Homo sapiens)
# Sequence (P18031 3-277 limits assumed): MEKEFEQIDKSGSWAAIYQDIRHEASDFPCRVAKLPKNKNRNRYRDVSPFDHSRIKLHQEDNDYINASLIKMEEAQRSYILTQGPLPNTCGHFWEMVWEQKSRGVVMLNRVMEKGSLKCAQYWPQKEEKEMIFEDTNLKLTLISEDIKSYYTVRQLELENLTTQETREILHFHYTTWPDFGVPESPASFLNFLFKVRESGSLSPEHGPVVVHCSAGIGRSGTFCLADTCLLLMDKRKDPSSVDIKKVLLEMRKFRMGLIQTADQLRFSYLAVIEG
pIC50: −log10 of the molar value.
measured.endpoint: pIC50

| compound | experimental.system | pIC50 |
| --- | --- | --- |
| COc1cccc(-c2nc(-c3ccc(/C=C/C(=O)O)cc3)c(-c3ccc(/C=C/C(=O)O)cc3)[nH]2)c1[N+](=O)[O-] [Compound 59] | PTP-1B (Homo sapiens) | 6.60 |

P. O=C(O)/C=C/c1ccc(-c2nc(-c3ccccc3[N+](=O)[O-])[nH]c2-c2ccc(/C=C/C(=O)O)cc2)cc1 [Compound 57]
Q. COc1ccc(-c2nc(-c3ccc(/C=C/C(=O)O)cc3)c(-c3ccc(/C=C/C(=O)O)cc3)s2)cc1 [Compound 168]
R. O=C(O)/C=C/c1ccc(-c2nc(-c3ccccc3)[nH]c2-c2ccc(/C=C/C(=O)O)cc2)cc1 [Compound 75]
Write the entries in order, lowest recorded pIC50 first. Return the labels ranked in the requested order, please.
Q, R, P

====

# experimental.system: PTP-1B (Homo sapiens)
# Construct: known to encode a 321 amino acid fragment containing the PTP-1B catalytic domain and having PTPase activity; made in house; host or cells: E. coli DH5α, plasmid pGEX-3X-PTP-1B
# protocol.text: In vitro PTPase inhibition assay (pNPP, colorimetric), PTP-1B
# Type: biochemical
# condition.details: Table 8; 1 μM compound
# reported % inhibition of PTP1B at 1 μM; entries follow
The reply should be a number in %, with the unit left off.

Example entries begin here.
| compound | % inhibition of PTP1B at 1 μM, % |
| --- | --- |
| CCCCCCCCCC(OC(=O)c1ccc(/C=C/C(=O)O)cc1)C(=O)NCCC(=O)O (racemic) | 88 |
| COc1ccc(C(=O)OC(C(=O)NCCCCCC(=O)O)c2ccc(/C=C/C(=O)O)cc2)cc1 (racemic) | 76 |
| O=C(O)/C=C/c1ccc(C(OC(=O)CCC2CCCC2)C(=O)NCCC(=O)O)cc1 (racemic) | 37 |

Then there is this compound:
Report the value of % inhibition of PTP1B at 1 μM obtained on PTP-1B (Homo sapiens) for COc1ccc(C(=O)OC(C(=O)NCCC(=O)O)c2ccc(/C=C/C(=O)O)cc2)cc1 (racemic) .
84
